# target.of.assay: L79K
# protocol.text: SPR; 37 C
measure.name: Kd (nM)

Here is how some binders turned out for Kd.
Activin A (ligand) GLECDGKVNICCKKQFFVSFKDIGWNDWIIAPSGYHANYCEGECPSHIAGTSGSSLSFHSTVINHYRMRGHSPFANLKSCCVPTKLRPMSMLYYDDGQNIIKKDIQNMIVEECGCS | 0.13
BMP10 (ligand) NAKGNYCKRTPLYIDFKEIGWDSWIIAPPGYEAYECRGVCNYPLAEHLTPTKHAIIQALVHLKNSQKASKACCVPTKLEPISILYLDKGVVTYKFKYEGMAVSECGCR | 1.4

a: BMP9 (ligand) SAGAGSHCQKTSLRVNFEDIGWDSWIIAPKEYEAYECKGGCFFPLADDVTPTKHAIVQTLVHLKFPTKVGKACCVPTKLSPISVLYKDDMGVPTLKYHYEGMSVAECGCR
b: GDF11 (ligand) NLGLDCDEHSSESRCCRYPLTVDFEAFGWDWIIAPKRYKANYCSGQCEYMFMQKYPHTHLVQQANPRGSAGPCCTPTKMSPINMLYFNDKQQIIYGKIPGMVVDRCGCS
stdin: // which entry reports the smaller Kd, a or b ? When you have decided, please share the label of that item.
stdout: b
(b: 0.14 nM, a: 1.1 nM)

From: patent US20240197902A1
